biological target: secreted soluble GalNAc-T2 (sT2) (Homo sapiens, UniProt Q10471); construct: HIS-tagged secreted human GalNAc-T2 and -T4 were prepared from pAC-GP67-T2-sol and pAC-GP67-T4-sol cDNA; 6xHis (N); thrombin cleavage site (N); T7 tag (N); made in house; host or cells: High Five insect cells (baculovirus); experiment: Direct binding ELISA to GalNAc-MUC1 glycopeptide, competitive inhibition, sT2; details: read-out: Concentration required for 50% inhibition (IC50), sT2
Sequence (Q10471 52-571 limits assumed): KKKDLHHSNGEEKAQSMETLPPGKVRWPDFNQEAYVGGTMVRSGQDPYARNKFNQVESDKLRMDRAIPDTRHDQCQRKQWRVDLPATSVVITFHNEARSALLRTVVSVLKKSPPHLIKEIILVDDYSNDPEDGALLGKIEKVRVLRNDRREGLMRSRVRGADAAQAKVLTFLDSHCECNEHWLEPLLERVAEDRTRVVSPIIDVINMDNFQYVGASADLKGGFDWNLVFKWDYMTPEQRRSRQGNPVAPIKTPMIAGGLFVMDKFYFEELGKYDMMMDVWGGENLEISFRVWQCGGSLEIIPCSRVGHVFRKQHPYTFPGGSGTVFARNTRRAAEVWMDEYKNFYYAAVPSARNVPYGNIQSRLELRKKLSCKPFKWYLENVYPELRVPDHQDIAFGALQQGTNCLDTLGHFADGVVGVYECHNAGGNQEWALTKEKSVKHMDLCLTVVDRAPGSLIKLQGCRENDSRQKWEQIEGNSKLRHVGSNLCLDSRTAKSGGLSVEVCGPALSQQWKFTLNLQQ
pIC50: −log10 of the molar value.

{"compound": "O=c1ccn([C@@H]2O[C@H](COP(=O)(O)OP(=O)(O)O)[C@@H](O)[C@H]2O)c(=O)[nH]1 [UDP]", "target": "secreted soluble GalNAc-T2 (sT2) (Homo sapiens, UniProt Q10471)", "pIC50": "< 1.00"}
{"compound": "CO[C@H]1O[C@H](CO)[C@H](O)[C@H](O)[C@H]1O [MeαGal]", "target": "secreted soluble GalNAc-T2 (sT2) (Homo sapiens, UniProt Q10471)", "pIC50": "< 1.00"}
{"compound": "CC(=O)N[C@H]1C(O)O[C@H](CO)[C@@H](O)[C@@H]1O (stereo partly drawn) [GlcNAc]", "target": "secreted soluble GalNAc-T2 (sT2) (Homo sapiens, UniProt Q10471)", "pIC50": "< 1.00"}

====

target: GalNAc-T4 lectin domain (T4ld) (Homo sapiens, UniProt Q8N4A0); construct: made in house; host or cells: High Five insect cells (baculovirus, pAcGP67-A); assay: Direct binding ELISA to GalNAc-MUC1 glycopeptide, competitive inhibition, T4ld; details: read-out: Concentration required for 50% inhibition (IC50), T4ld
Sequence (Q8N4A0 405-578): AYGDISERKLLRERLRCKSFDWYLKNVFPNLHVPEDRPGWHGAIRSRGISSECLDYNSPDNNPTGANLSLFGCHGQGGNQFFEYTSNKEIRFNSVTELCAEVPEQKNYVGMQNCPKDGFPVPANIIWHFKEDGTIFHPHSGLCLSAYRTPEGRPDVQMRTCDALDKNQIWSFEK

{"molecule": "CC(=O)N[C@H]1C(O)O[C@H](CO)[C@@H](O)[C@@H]1O (stereo partly drawn)", "target": "GalNAc-T4 lectin domain (T4ld) (Homo sapiens, UniProt Q8N4A0)", "IC50": "> 100 mM"}
{"molecule": "CO[C@H]1O[C@H](CO)[C@H](O)[C@H](O)[C@H]1O", "target": "GalNAc-T4 lectin domain (T4ld) (Homo sapiens, UniProt Q8N4A0)", "IC50": "> 100 mM"}
{"molecule": "O=c1ccn([C@@H]2O[C@H](COP(=O)(O)OP(=O)(O)O)[C@@H](O)[C@H]2O)c(=O)[nH]1", "target": "GalNAc-T4 lectin domain (T4ld) (Homo sapiens, UniProt Q8N4A0)", "IC50": "> 100 mM"}
